# maps each entry to its inhibition of aggregation
- protocol.details: reduction of polyQ htt aggregates in cells – imaging, exon1htt(103Q)mCFP cells, high-content imaging, primary screen (AID 483);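 also: compound exposure lasted 3 days before fixation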
- particulars: exon1htt(103Q)mCFP cell line, aggregate imaging, at 2 µM; stronger effect = higher value
Answer in %, number only, no unit symbol.

molecule	units	inhibition of aggregation
COc1ccc(CCNC(=O)C2CCN(S(=O)(=O)c3cc(OC)ccc3OC)CC2)cc1	%	3
COc1ccc(-c2nc(CS(=O)CC(=O)NCc3ccccn3)c(C)o2)cc1 (centres undefined)	%	-23.1

Attention now shifts to the item below.
Exercise: Please supply the value of reported inhibition of aggregation for the item COc1ccccc1Oc1coc2c(CN3CCN(C)CC3)c(O)ccc2c1=O
Key: -8.8

----------
Recorded cell count, one value per entry.
- protocol.details: inhibitors of TNFa-induced NFkB p65 translocation, primary screen, imaging, HUVEC, MLSMR starter and 10KST1 sets (AID 438);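 also: compound added about 3h40 before a 20 min TNFalpha stimulation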
- particulars: HUVEC TNFa-induced p65 nuclear translocation; measured here: nuclei count (cytotoxicity indicator), at 2.08 µM
Field format: numeric only.

These recorded examples may help you get a feel for the data.
compound	cell count
COc1ccccc1Cn1nnc2c(=O)[nH]c(C3CCN(C(=O)c4ccccc4Cl)CC3)nc21	324
COCCn1c(SCC(=O)N(C(C)C)C(C)C)nnc1-c1cc2ccccc2cc1O	362
Cc1cc(C)cc(NC(=O)C2CCCN(c3nccc(C)n3)C2)c1 (stereo not drawn)	373
CN1CCN(C(=O)C2CCN(S(=O)(=O)c3ccc4c(c3)oc(=O)n4C)CC2)CC1	554
S=c1[nH]nc(Cc2ccccc2)n1Cc1ccco1	769
O=C(COc1ccc(S(=O)(=O)NC2CCCCC2)cc1Cl)NCC1CCCO1 (stereo not drawn)	310

Exercise: Using known records, supply cell count for CCc1nn2c(N3CCOCC3)cc(C)nc2c1-c1ccc(F)cc1
Key: 716

Exercise: Consider the compound COC(=O)CN(c1ccc(OC)cc1)S(=O)(=O)c1ccc(OC)c(OC)c1 and give its recorded cell count.
Key: 669

Exercise: Give cell count for the following compound: Cc1ccc2cc(CCNC(=O)C(C)C)c(=O)[nH]c2c1C
Key: 640

Exercise: Return the recorded cell count value; entry: Cc1cc(C(=O)NCCCN2CCOCC2)n(-c2ccccc2)n1
Key: 624

Exercise: Name the recorded cell count of the item COc1ccc(-c2nnc(-c3cccs3)o2)cc1OC in your answer.
Key: 384

Exercise: Return cell count for the following compound: Cn1c2ccc(F)cc2c2ncn(CCN3CCOCC3)c(=O)c21
Key: 719

Exercise: Consider the compound COC(=O)c1ccccc1NC(=O)N1CCCC1 and give its recorded cell count.
Key: 380

Exercise: Supply cell count value. Item: O=S(=O)(Nc1cccnc1)c1cc(Cl)ccc1Cl
Key: 395

Exercise: Provide one value: measured cell count of O=C1C(C=NCCCn2ccnc2)=C(O)c2ccccc21
Key: 422

Exercise: Read the entry CCn1cc(SCC(=O)Nc2cc(C)on2)c2ccccc21 and write its reported cell count.
Key: 760

Exercise: Answer with reported cell count of COc1ccccc1CN1C(=S)SC(C)(C)C1NO (stereo not drawn)
Key: 487

----------
- target.system: Alpha-2C adrenergic receptor (Homo sapiens) (UniProt P18825)
- Sequence (P18825 whole entry, looked up): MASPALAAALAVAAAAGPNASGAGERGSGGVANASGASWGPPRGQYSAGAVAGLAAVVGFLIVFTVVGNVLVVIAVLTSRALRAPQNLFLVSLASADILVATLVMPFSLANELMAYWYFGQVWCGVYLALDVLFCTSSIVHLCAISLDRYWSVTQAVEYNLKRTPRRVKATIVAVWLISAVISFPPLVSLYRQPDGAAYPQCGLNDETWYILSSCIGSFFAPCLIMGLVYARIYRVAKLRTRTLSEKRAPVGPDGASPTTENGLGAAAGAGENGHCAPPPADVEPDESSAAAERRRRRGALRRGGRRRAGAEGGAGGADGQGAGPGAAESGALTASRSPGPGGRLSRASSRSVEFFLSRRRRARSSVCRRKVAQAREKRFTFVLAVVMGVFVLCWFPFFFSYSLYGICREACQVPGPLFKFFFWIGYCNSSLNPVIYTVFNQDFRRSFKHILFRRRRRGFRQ
- protocol.details: compounds altering alpha2C-coupled GIRK flux – cell-based, HEK293 alpha2C/GIRK1/2, thallium flux, primary screen (AID 624);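 also: slope of fluorescence ratio to pre-addition baseline per second over 15 to 24 s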
- particulars: thallium flux BTC fluorescence, at 10 µM, actives lie on both sides
measured.property: slope
Answer with a number only.

Past entries and their recorded results:
1. COc1ccc(S(=O)(=O)N(CC(=O)N2CCN(c3ccccc3OC)CC2)c2ccccc2)cc1 0.00648
2. Cc1ccc2oc(C(=O)Nc3c(C)n(C)n(-c4ccccc4)c3=O)c(C)c2c1 0.00692
3. CCc1nc(SCC(=O)NCc2ccco2)c2c3c(sc2n1)CCCC3 0.00647

Exercise: Fill in slope for record Cc1ccc(NC(=O)CSc2nnc(-c3ccncc3)n2C)cc1C
Key: 0.00642

Exercise: Return value of slope for input Cc1ccc(-n2ncc3c(=O)[nH]c(SC(C)C)nc32)cc1 , no commentary.
Key: 0.0066

----------
- protocol.details: reduction of polyQ htt aggregates in cells – imaging, exon1htt(103Q)mCFP cells, high-content imaging, primary screen (AID 483);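 also: compound exposure lasted 3 days before fixation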
- particulars: exon1htt(103Q)mCFP cell line, aggregate imaging, at 2 µM; stronger effect = higher value
Consider the following compounds and their measured inhibition of aggregation readings.
Please respond with the number in % and leave the unit unwritten.

Examples from the recorded data:
compound	inhibition of aggregation (%)
O=C(O)C1C2CCC(O2)C1C(=O)NCCC1=CCCCC1 (stereo not given)	-18.3
Cc1ccc2[nH]c(=O)c(CN(Cc3ccc4c(c3)OCO4)Cc3nnnn3Cc3ccco3)cc2c1	-15.3
CCOC(=O)c1sc2cccc(F)c2c1N	24.4
COCCn1c(SCC(=O)Nc2cccc(OC)c2)nnc1-c1ccccc1	6.3
CCOC(=O)c1cc2sccc2n1Cc1ccccc1	-5.2
COc1cccc(-c2csc(N3CCN(CC(=O)Nc4ccc5c(c4)OCO5)CC3)n2)c1	-24.6

Consider now this further compound.
Exercise: Annotate the compound COc1ccc(C(=O)N2CCN(S(=O)(=O)c3cc(Cl)ccc3OC)CC2)cc1 with its measured inhibition of aggregation.
Key: -29.4

----------
- protocol.details: inhibitors of TNFa-induced NFkB p65 translocation, primary screen, imaging, HUVEC, MLSMR starter and 10KST1 sets (AID 438);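 also: compound added about 3h40 before a 20 min TNFalpha stimulation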
- particulars: HUVEC TNFa-induced p65 nuclear translocation; measured here: nuclei count (cytotoxicity indicator), at 2.08 µM
Reported values of cell count for individual entries
Reply: number alone, nothing else.

compound	cell count
CCOC(=O)N1CCC(NC(=O)c2ccc(CS(=O)(=O)c3c(Cl)cccc3Cl)o2)CC1	608
Cc1nc2ccc(S(=O)(=O)NC(C(=O)N3CCCC3)C(C)C)cc2s1 (stereo not given)	677
CCOC(=O)C1CCN(Cc2ccc(OC)c(C)c2OC)CC1	313
COC(=O)c1sccc1NC(=O)c1csc(C)c1	406
C/C=C/c1ccc(OCCn2cncn2)c(OC)c1	746

Exercise: Provide one value: measured cell count of CCN(CC)CCNC(=O)CCn1c(=S)[nH]c2cc3c(cc2c1=O)OCO3
Key: 380

Exercise: Write down cell count measured for item COc1ccc(OCC(O)Cn2c(Br)nc3c2c(=O)[nH]c(=O)n3C)cc1 (stereo not given)
Key: 221

Exercise: Output measured cell count for this item: COc1ccc(Br)cc1CNC(=O)C1CCCN(S(C)(=O)=O)C1 (stereo not given)
Key: 949

Exercise: Hello, please tell me recorded cell count for this one: Cc1cccc(NC(=O)c2ccccc2O)c1C
Key: 497

Exercise: Identify cell count associated with the compound CCOc1cccc(-n2nnnc2-c2ccc(OC)cc2)c1
Key: 208

Exercise: For the compound CCOC(=O)c1cc2c(=O)n3ccccc3nc2n(CC(C)C)c1=NC(=O)c1ccco1 , give its measured cell count value.
Key: 659

----------
- protocol.details: inhibitors of TNFa-induced NFkB p65 translocation, primary screen, imaging, HUVEC, MLSMR starter and 10KST1 sets (AID 438);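 also: compound added about 3h40 before a 20 min TNFalpha stimulation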;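 as to inhibition: signal is the nuclear over cytoplasmic p65 intensity ratio per well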
- particulars: HUVEC TNFa-induced p65 nuclear translocation; at 2 µM, stronger effect = higher value, 0% TNFa-plus-vehicle, 100% no-TNFa wells
Reported inhibition is given for each of the following compounds.
Report only the number, with the unit % understood.

Solved entries:
compound	inhibition / %
C/C(=N\O)C(=O)C(CN1CCCCC1)CN1CCCCC1	0.5
CCCCCCn1c(SCC(=O)OC)nc2c1c(=O)[nH]c(=O)n2C	-5.9
CCN(CC)Cc1c(C(=O)OC)nnn1-c1nonc1N	-0.2
CCOc1ccc(-n2cc(C(=O)N3CCN(C)CC3)c3cc(OC)c(OC)cc3c2=O)cc1	8.8

Exercise: Name the recorded inhibition of the item COc1ccc(C2C(C#N)=C(N)Oc3cc4c(cc32)OCO4)cc1 (stereo not drawn) in your answer.
Key: 3.5

Exercise: Quote inhibition reported for CCOC(=O)N1CCN(c2c(N3CCN(c4ccccn4)CC3)c(=O)c2=O)CC1 please.
Key: 3.4

Exercise: Report inhibition, nothing else, for this compound: Fc1cccc(NCc2cn3ccccc3n2)c1
Key: -8

Exercise: Answer with the recorded inhibition of CN1CCc2c(sc3c2c(=O)n(-c2ccccc2)c2nnc(SCc4ccc(F)cc4)n32)C1 only.
Key: 2.1

Exercise: Report inhibition for Cc1ccc2c(c1)CCCN2C(=O)Nc1ccc2c(c1)OCO2
Key: -0.8

Exercise: Annotate the compound CCOc1cc(S(=O)(=O)NCc2ccc3c(c2)OCO3)ccc1F with its measured inhibition.
Key: 1.8

Exercise: Identify measured inhibition associated with O=C(Nc1ccc(Br)cc1F)c1sccc1-n1cccc1
Key: -12.7

Exercise: Indicate its recorded inhibition; the compound in question is COC(=O)c1cccc(S(=O)(=O)N2CCC(C)CC2)c1
Key: -10.3

Exercise: Identify the reported inhibition for the following entry. CC(=O)Nc1ccc(S(=O)(=O)NCC2CCC(C(=O)NCCCN3CCCC3=O)CC2)cc1 (stereo not drawn)
Key: -0.8
